# TESTED_SYSTEM: RgNanH (Mediterraneibacter gnavus, UniProt A7B557)
# METHOD_DESCRIPTION: Inhibition of RgNanH activity against 4MU-Neu5Ac by neuraminidase inhibitors
# CONDITIONS: IC50, Table 2; substrate 4MU-Neu5Ac 0.51 mM, RgNanH 1.00 nM
pIC50: −log10 of the molar value.
METRIC: pIC50

• CC(=O)NC1C(O)C=C(C(=O)O)OC1C(O)C(O)CO (stereo not shown) = 2.85

----------
# TESTED_SYSTEM: RgNanH (Mediterraneibacter gnavus, UniProt A7B557)
# METHOD_DESCRIPTION: Inhibition of RgNanH activity against 4MU-Neu5Ac by neuraminidase inhibitors
# CONDITIONS: Table 2; substrate 4MU-Neu5Ac 0.51 mM, RgNanH 1.00 nM
METRIC: IC50 (µM)

• CC(=O)N[C@H]1NC[C@H](C(=O)O)[C@H](O)[C@@H]1O [Siastatin B] = 4.87

----------
# TESTED_SYSTEM: RgNanH (Mediterraneibacter gnavus, UniProt A7B557)
# Sequence (A7B557 26-723): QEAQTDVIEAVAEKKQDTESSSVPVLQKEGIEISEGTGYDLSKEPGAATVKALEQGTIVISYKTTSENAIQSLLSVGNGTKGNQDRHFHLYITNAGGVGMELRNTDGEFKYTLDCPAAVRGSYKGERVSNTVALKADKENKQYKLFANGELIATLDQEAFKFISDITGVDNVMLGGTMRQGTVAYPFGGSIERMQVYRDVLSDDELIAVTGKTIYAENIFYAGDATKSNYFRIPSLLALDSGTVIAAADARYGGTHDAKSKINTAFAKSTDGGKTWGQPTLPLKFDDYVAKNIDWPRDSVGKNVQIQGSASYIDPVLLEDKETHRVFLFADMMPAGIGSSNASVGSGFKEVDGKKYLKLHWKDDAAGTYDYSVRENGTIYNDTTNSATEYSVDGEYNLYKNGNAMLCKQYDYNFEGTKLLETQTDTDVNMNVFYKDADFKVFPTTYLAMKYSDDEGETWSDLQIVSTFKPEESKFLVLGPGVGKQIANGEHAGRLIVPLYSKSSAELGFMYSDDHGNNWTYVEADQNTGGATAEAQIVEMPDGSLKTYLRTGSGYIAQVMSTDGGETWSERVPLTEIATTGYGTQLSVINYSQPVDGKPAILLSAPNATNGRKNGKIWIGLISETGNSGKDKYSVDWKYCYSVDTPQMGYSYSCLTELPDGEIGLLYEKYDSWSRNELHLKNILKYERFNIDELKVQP
# METHOD_DESCRIPTION: Inhibition of RgNanH activity against 4MU-Neu5Ac by neuraminidase inhibitors
# CONDITIONS: IC50; substrate 4MU-Neu5Ac
METRIC: IC50 (mM)

- CC(=O)NC1C(O)C=C(C(=O)O)OC1C(O)C(O)CO (stereo not shown): 1.4
